The values you see were collected from patent US9302999B2.

Please provide measured Pigweed plant response rating for the entries that follow.
- Test system: pigweed (Amaranthus retroflexus)
- assayNotes: Test A pre-/postemergence: pigweed
- Format: in vivo
- conditionSummary: Postemergence, 500 g ai/ha; visual rating on 0 to 100 scale (0 no effect, 100 complete control), approximately ten days
One number for each entry.

>>> df
                                   molecule                       assaytarget  readoutvalue
0  COc1nn(-c2ccc(C(F)(F)F)cc2)nc1C(F)c1ccnc(C(F)(F)F)c1 (stereo not drawn) [Compound 80]  pigweed (Amaranthus retroflexus)           100
1  Cc1nn(-c2ccc(C(F)(F)F)cc2)nc1Cn1cnc(C(F)(F)F)c1Cl [Compound 13]  pigweed (Amaranthus retroflexus)             0
2  Cc1nn(-c2ccc(F)cc2)nc1Oc1ccnc(C(F)(F)F)n1 [Compound 101]  pigweed (Amaranthus retroflexus)            90
3  Cc1nn(-c2ccc(C(F)(F)F)cn2)nc1Cn1cnc(C(F)(F)F)n1 [Compound 8]  pigweed (Amaranthus retroflexus)           100
4  COc1nn(-c2ccc(C(F)(F)F)cc2)nc1Cc1ccnc(C(F)F)c1 [Compound 138]  pigweed (Amaranthus retroflexus)           100

Hi! Can you tell me Pigweed plant response rating for each of these molecules?
1. Cc1nn(-c2ccc(F)cc2)nc1Oc1cc(C(F)(F)F)nn1C [Compound 126]
2. Cc1nn(-c2ccc(C(F)(F)F)cc2)nc1Cn1cc(C(F)(F)F)nc1Cl [Compound 9]
3. COc1nn(-c2ccc(C(F)(F)F)cc2)nc1C(C)(O)c1ccnc(C(F)(F)F)c1 (stereo not drawn) [Compound 79]
4. Cc1nn(-c2ccc(C(F)(F)F)cc2)nc1Oc1cncc(C(F)(F)F)c1 [Compound 37]

[100, 100, 0, 100]

----------
- Tested on: deadnettle (henbit deadnettle, Lamium amplexicaule)
- assayNotes: Test D pre-/postemergence: deadnettle
- Assay type: in vivo
- conditionSummary: Preemergence, 31 g ai/ha; scale 0 to 100, 0 no effect, 100 complete control
quantityName: Plant response rating, Deadnettle
Numbers only.

>>> df
                            molecularstring  readoutvalue
0  CCOc1nn(-c2ccc(F)cc2)nc1Cc1ccnc(C(F)(F)F)c1            40
1  CCc1nn(-c2ccc(C(F)(F)F)cc2)nc1Cc1ccnc(C(F)(F)F)c1             5
2  Cc1nn(-c2ccc(C(F)(F)F)cn2)nc1Cc1cccc(C(F)(F)F)c1             0

// next entry
Indicate the recorded Plant response rating, Deadnettle value for this molecule: `Cc1nn(-c2ccc(C(F)(F)F)cc2)nc1Oc1ccnc(C(F)(F)F)c1` 85

----------
- Test system: woolly cupgrass (Eriochloa villosa)
- assayNotes: Test C pre-/postemergence: woolly cupgrass
- Assay type: in vivo
- conditionSummary: Preemergence, 62 g ai/ha; scale of 0 to 100, 0 is no effect, 100 is complete control
- Text: […] Treated plants and controls were maintained in a greenhouse for 13 to 15 days, after which time all species were compared to controls and visually evaluated. […]
quantityName: Plant response rating, Cupgrass, Woolly
Answers are plain numbers.

A selection of reference data follows.
>>> print(df.to_string())
                                   compound  readoutvalue
0  Cc1nn(-c2ccc(C(F)(F)F)cn2)nc1Oc1ccnc(C(F)(F)F)c1 [Compound 23]           100
1  FC(F)Oc1nn(-c2ccc(C(F)(F)F)cc2)nc1Cc1ccnc(C(F)(F)F)c1 [Compound 26]            65
2  Cc1nn(-c2ccc(F)cc2F)nc1Oc1ccnc(C(F)(F)F)c1 [Compound 146]            45

// next entry
// Input: COc1nn(-c2ccc(C(F)(F)F)cc2)nc1Cc1ccnc(C(F)F)c1 [Compound 138] . Output its Plant response rating, Cupgrass, Woolly only. 90
